# system: Proto-oncogene tyrosine-protein kinase Src (Homo sapiens)
# test_method_notes: Inhibition of human GST-HIS-tagged SRC assessed as residual activity at 0.1 uM relative to control
reported_property: Activity
State the value, then name its unit.

Past entries and their recorded results:
{"chemical_smiles": "CNS(=O)(=O)c1ccc2c(c1)/C(=C/c1cn(C)c3ccc(OC)cc13)C(=O)N2", "Activity": "92%"}
{"chemical_smiles": "COc1ccc2c(c1)c(/C=C1\\C(=O)Nc3ccc(S(N)(=O)=O)cc31)cn2C", "Activity": "113%"}
{"chemical_smiles": "CN(C)S(=O)(=O)c1ccc2c(c1)/C(=C/c1cn(C)c3ccc(O)cc13)C(=O)N2", "Activity": "79%"}

Prompt: What Activity value was documented for this molecule, Cn1cc(/C=C2\C(=O)Nc3ccc(S(N)(=O)=O)cc32)c2ccccc21 ?
Completion: 124%

Prompt: What Activity value was documented for this molecule, COc1ccc2[nH]cc(/C=C3\C(=O)Nc4ccc(S(N)(=O)=O)cc43)c2c1 ?
Completion: 107%

Prompt: What Activity value was documented for this molecule, COc1ccc2c(c1)c(/C=C1\C(=O)Nc3ccc(S(=O)(=O)N(C)C)cc31)cn2C ?
Completion: 93%
